Target: Sigma non-opioid intracellular receptor 1 (Cavia porcellus)
Sequence (Q60492 whole entry): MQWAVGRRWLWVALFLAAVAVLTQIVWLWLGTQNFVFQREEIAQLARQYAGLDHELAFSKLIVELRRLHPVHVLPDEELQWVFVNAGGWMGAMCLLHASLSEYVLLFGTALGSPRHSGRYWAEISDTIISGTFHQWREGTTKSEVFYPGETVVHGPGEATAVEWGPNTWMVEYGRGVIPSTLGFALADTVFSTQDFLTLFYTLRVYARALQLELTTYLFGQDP
Assay: Displacement of [3H](+)-pentazocine from sigma 1 receptor in guinea pig brain cortex membranes after 120 mins by scintillation counting analysis
pKi: −log10 of the molar value.
Rule: satisfied for pKi not less than 7, not satisfied for anything less.

OC(Cc1ccccc1)CN1CCC(NCCSC(c2ccc(F)cc2)c2ccc(F)cc2)CC1 (centres undefined)
not satisfied

input: Does pKi meet or surpass 7 for "O=C(c1ccc(F)cc1)N1CCC(NCCSC(c2ccc(F)cc2)c2ccc(F)cc2)CC1" ?
output: satisfied

input: Does pKi meet or surpass 7 for "O=C(c1cc2ccccc2o1)N1CCC(NCCSC(c2ccc(F)cc2)c2ccc(F)cc2)CC1" ?
output: not satisfied

input: Does pKi meet or surpass 7 for "Fc1ccc(C(SCCNC2CCN(Cc3ccc(C(F)(F)F)cc3)CC2)c2ccc(F)cc2)cc1" ?
output: not satisfied

input: Does pKi meet or surpass 7 for "Fc1ccc(C(SCCN2CCC(NCc3ccccc3)CC2)c2ccc(F)cc2)cc1" ?
output: satisfied

input: Does pKi meet or surpass 7 for "O=C(c1ccccc1F)N1CCC(NCCSC(c2ccc(F)cc2)c2ccc(F)cc2)CC1" ?
output: satisfied

input: Does pKi meet or surpass 7 for "Fc1ccc(C(SCCNC2CCN(Cc3ccc(Cl)cc3)CC2)c2ccc(F)cc2)cc1" ?
output: satisfied

input: Does pKi meet or surpass 7 for "Fc1ccc(C(SCCNC2CCN(Cc3cc4ccccc4o3)CC2)c2ccc(F)cc2)cc1" ?
output: not satisfied

* * *

Target: D(2) dopamine receptor (Homo sapiens, UniProt P14416)
Sequence (P14416 whole entry): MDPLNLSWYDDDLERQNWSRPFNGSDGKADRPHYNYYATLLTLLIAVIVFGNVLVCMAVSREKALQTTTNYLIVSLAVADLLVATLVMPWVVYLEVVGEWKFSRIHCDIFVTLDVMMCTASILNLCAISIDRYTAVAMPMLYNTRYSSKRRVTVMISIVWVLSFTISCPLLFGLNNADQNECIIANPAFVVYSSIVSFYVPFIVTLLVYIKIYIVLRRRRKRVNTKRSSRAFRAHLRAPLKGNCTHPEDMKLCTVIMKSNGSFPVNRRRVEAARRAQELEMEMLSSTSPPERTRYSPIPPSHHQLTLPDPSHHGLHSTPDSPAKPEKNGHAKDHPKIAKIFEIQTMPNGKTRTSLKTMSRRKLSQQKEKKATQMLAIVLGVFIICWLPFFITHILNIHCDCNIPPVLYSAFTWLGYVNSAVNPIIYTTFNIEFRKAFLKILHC
value.kind: Ki (µM)
// units = µM; emit number, no label

O=C(c1ccc(F)cc1)N1CCC(NCCSC(c2ccc(F)cc2)c2ccc(F)cc2)CC1
8.83

input: I have this compound here, "O=C(c1ccccc1)N1CCC(NCCSC(c2ccc(F)cc2)c2ccc(F)cc2)CC1" , and I need its recorded Ki.
output: 2.9

input: I have this compound here, [O-][S+](CCNC1CCN(Cc2ccc(F)cc2)CC1)C(c1ccc(F)cc1)c1ccc(F)cc1 (stereo not drawn) , and I need its recorded Ki.
output: 12.4

* * *

Species: Rattus norvegicus
Assay: Selectivity ratio of Ki for SERT in Sprague-Dawley rat midbrain membranes to Ki for DAT in Sprague-Dawley rat striatum membranes
Each entry below lists one item and its recorded Ratio Ki value.
Response field accepts a number only; no unit should be typed.

OC(CNC1CCN(CCSC(c2ccc(F)cc2)c2ccc(F)cc2)CC1)Cc1ccccc1 (centres undefined)
1.4
[O-][S+](CCNC1CCN(Cc2ccc(F)cc2)CC1)C(c1ccc(F)cc1)c1ccc(F)cc1 (centres undefined)
7.37
CC(C)(C)CN1CCC(NCCSC(c2ccc(F)cc2)c2ccc(F)cc2)CC1
3.39
O=C(C1CC1)N1CCC(NCCSC(c2ccc(F)cc2)c2ccc(F)cc2)CC1
5.67
Fc1ccc(C(SCCNC2CCN(Cc3cc4ccccc4o3)CC2)c2ccc(F)cc2)cc1
5.79

input: I have this compound here, "CN(CCSC(c1ccc(F)cc1)c1ccc(F)cc1)C1CCN(C(=O)c2ccc(F)cc2)CC1" , and I need its recorded Ratio Ki.
output: 12.8

input: I have this compound here, "O=C(c1ccccc1)N1CCC(NCCSC(c2ccc(F)cc2)c2ccc(F)cc2)CC1" , and I need its recorded Ratio Ki.
output: 62.8

input: I have this compound here, "Fc1ccc(CNC2CCN(CCSC(c3ccc(F)cc3)c3ccc(F)cc3)CC2)cc1" , and I need its recorded Ratio Ki.
output: 4.79

input: I have this compound here, "Fc1ccc(C(SCCNC2CCN(Cc3ccc(Cl)cc3)CC2)c2ccc(F)cc2)cc1" , and I need its recorded Ratio Ki.
output: 9.04
